Biological target: HIV-1 Env of 6535.3 (HIV-1)
Assay: cell-based or functional assay
Parameter: neutralization IC50

Need neutralization IC50 of CAP256-VRC26.10 (antibody, V domains shown) VH: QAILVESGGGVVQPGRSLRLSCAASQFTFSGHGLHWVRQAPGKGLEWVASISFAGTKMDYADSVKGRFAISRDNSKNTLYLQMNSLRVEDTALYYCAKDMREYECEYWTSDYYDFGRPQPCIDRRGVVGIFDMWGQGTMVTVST VL: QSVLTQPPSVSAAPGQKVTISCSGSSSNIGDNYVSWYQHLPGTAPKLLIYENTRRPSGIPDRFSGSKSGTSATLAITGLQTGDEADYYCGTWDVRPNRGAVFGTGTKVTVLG , thanks.
> 50 µg/mL
